- system: T1, hHER3 full length (human, UniProt P21860 20-1342)
- T1 construct: On transfected CHO, CHO HER2/HER3, CHO EGFR/HER3 or CHO Flp-In cells; endogenous HER3 of MCF-7 and MDA-MB468 cells in the signalling assays; also called human HER3
- test.name: FACS, 400 nM, competitor 18E08-biotin
Let's look at some binders and their measured % competition.
value.kind: % competition

- binder: "17C08 (VHH, also called 17C8) VHH: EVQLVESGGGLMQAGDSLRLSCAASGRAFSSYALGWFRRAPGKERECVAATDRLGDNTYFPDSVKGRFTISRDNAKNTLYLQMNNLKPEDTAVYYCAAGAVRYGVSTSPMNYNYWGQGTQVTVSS"
  reported.measurement: "98%"
- binder: "04C07 (VHH, also called HER3MS04C07; HER3MS004C07) VHH: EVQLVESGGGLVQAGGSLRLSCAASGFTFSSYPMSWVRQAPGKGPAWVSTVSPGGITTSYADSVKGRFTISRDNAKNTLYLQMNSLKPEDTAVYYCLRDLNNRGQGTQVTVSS"
  reported.measurement: "26%"
